FYI, the data here is from paper PMC8774648.

# Target: β-lactoglobulin (BLG) (Bos taurus)
# Construct: purchased Sigma–Aldrich Co. (St. Louis, MO, USA)
# Sequence (P02754 17-178): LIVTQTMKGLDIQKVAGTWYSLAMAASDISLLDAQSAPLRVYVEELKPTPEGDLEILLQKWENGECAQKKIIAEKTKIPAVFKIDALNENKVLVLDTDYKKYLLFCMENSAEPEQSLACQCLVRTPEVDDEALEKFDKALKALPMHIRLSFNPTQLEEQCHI
# Run description: Intrinsic fluorescence quenching of BLG by Bai/Chr (Stern–Volmer and double logarithmic equations)
# Type: binding
# Condition context: Ka (binding constant), T = 310 K, pH 6.8
Readout label: pKd
Numbers only, as −log10 of the molar value.

# input compound: O=c1cc(-c2ccccc2)oc2cc(O)cc(O)c12 ; wanted: its pKd
5.29
